Just for reference, patent US8962020B2 is where these values come from.

- PROCEDURE_SUMMARY: Pharmacokinetics following oral administration of 23CPPA in rats for fourteen days
- Format: in vivo
- STATED_CONDITIONS: rat, plasma, 75 mg/kg/day for fourteen days
PROPERTY: half-life (min)

COMPOUND	VAL
O=C(O)Cc1ccccc1Nc1cccc(Cl)c1 [Granule 23CPPA]	138

###

- PROCEDURE_SUMMARY: pKa (acid dissociation constant)
- Assay type: physicochemical
- STATED_CONDITIONS: pharmaceutically acceptable salts of 23CPPA such as potassium; read-out: pKa (logarithm of the acid dissociation constant)
PROPERTY: pKa

COMPOUND	PROPERTY	VAL
O=C(O)Cc1ccccc1Nc1cccc(Cl)c1 [Granule 23CPPA]	pKa	4

###

- PROCEDURE_SUMMARY: Pharmacokinetics following oral administration of 23CPPA in rats for fourteen days
- Assay type: in vivo
- STATED_CONDITIONS: rat, plasma, 25 mg/kg/day for fourteen days
PROPERTY: Tmax (min)

COMPOUND	VAL
O=C(O)Cc1ccccc1Nc1cccc(Cl)c1 [Granule 23CPPA]	15

###

- PROCEDURE_SUMMARY: Pharmacokinetics following oral administration of 23CPPA in rats for fourteen days
- Assay type: in vivo
- STATED_CONDITIONS: rat, plasma, 75 mg/kg/day for fourteen days
PROPERTY: Tmax (min)

1) O=C(O)Cc1ccccc1Nc1cccc(Cl)c1 15
